Reference for the values: patent US20250127759A1

assay.overview: In vivo efficacy, OVCAR3 ovarian cancer tumor model
details: female, mouse, NSG mice, po, BID, read-out: maximum tolerated dose level
assay.metric: MTD at 21 days

Sample COCc1cc(C(=O)Nc2cc([C@H]3CC[C@@H](OC(=O)NC(C)C)C3)[nH]n2)n(C)n1 — what was its MTD at 21 days?
175 mg/kg

====

assay.overview: Phase 1/2a study, plasma pharmacokinetics of PF-07104091
Type: in vivo, human
details: human, plasma, po, 300 mg, Cycle 1 Day 15, repeated BID oral; 300 mg BID monotherapy; geometric mean (CV %)
assay.metric: AUC(0-t) (ng·h/mL)
Answers are plain numbers, in ng·h/mL.

Recorded AUC(0-t) of COCc1cc(C(=O)Nc2cc([C@H]3CC[C@@H](OC(=O)NC(C)C)C3)[nH]n2)n(C)n1 , please.
12500
